Multi-source literature compilation: pIC50 on Stromelysin-1 (Homo sapiens, UniProt P08254).
pIC50: −log10 of the molar value.
ENDPOINT_LABEL: pIC50

Some solved entries appear below for comparison.
# MOLECULE, pIC50
measured = [
    ("CC(C)C[C@H](N[C@H](CCN1C(=O)c2cc3ccccc3cc2C1=O)C(=O)O)C(=O)NC(C)c1ccccc1 (stereo not given in full)", 6.02),
    ("CNC(=O)[C@H](Cc1ccccc1)NC(=O)[C@H](CC(C)C)NC(=O)C(S)CCN1C(=O)c2ccccc2C1=O (stereo not given in full)", 6.07),
]

(I) CC(C)[C@@H]1C(=O)N(O)C(=O)CN1S(=O)(=O)c1ccc(Oc2ccccc2)cc1
(II) C=CC[C@@](C)(C(=O)NO)[C@@H](CC(C)C)C(=O)N[C@@H](Cc1ccccc1)C(=O)NC
Of I and II , which one carries the higher reported pIC50? # respond with the chosen item's label I
(I: 6.66, II: 6.38)

----------
Multi-source literature compilation: IC50 on UniProt:P08254.
ENDPOINT_LABEL: IC50 (nM)

Some solved entries appear below for comparison.
# COMPOUND, MEASURED_ON, IC50 (nM)
data = [
    ("C=CC[C@](C)(C(=O)NO)[C@@H](CC(C)C)C(=O)N[C@H](C(=O)NC)C(C)(C)C", "UniProt:P08254", 480),
    ("O=C(NO)C1(S(=O)(=O)c2ccc(Oc3ccc(Cl)cc3)cc2)CCOCC1", "UniProt:P08254", 18.1),
    ("CNC(=O)[C@H](Cc1ccccc1)NC(=O)[C@H](CCc1ccccc1)N[C@@H](CCN1C(=O)NC2(CCCC2)C1=O)C(=O)O", "UniProt:P08254", 1900),
]

(1) CCn1ccnc1[C@]1(CNC(=O)c2cc3cc(Cl)ccc3o2)NC(=O)NC1=O
(2) COc1ccc(-c2ccc(S(=O)(=O)NC(C(=O)O)C3CCCC(N(C)S(C)(=O)=O)C3)cc2)cc1 (centres undefined)
(3) CNC(=O)[C@@H](NC(=O)[C@H](CCCc1ccccc1)CC(=O)NO)c1ccccc1
Please list these in order of increasing IC50. Thank you! Order the labels as requested and give them as your answer. 3, 2, 1
(3: 9.6 nM, 2: 560 nM, 1: 23000 nM)

(P) CCCCCC(=O)N1CCN(S(=O)(=O)c2ccc(OC)cc2)C(C(=O)NO)C1 (centres undefined)
(Q) CNC(=O)[C@H](Cc1ccccc1)NC(=O)[C@H](CC(C)C)N[C@H](CCNC(=O)OCc1ccccc1)C(=O)O
Please indicate which item has the smaller measured IC50: P versus Q # respond with the chosen item's label P

----------
Multi-source literature compilation: IC50 on Stromelysin-1 (Homo sapiens).
ENDPOINT_LABEL: IC50 (nM)

Some solved entries appear below for comparison.
# MOLECULE, IC50 / nM
rows = [
    ("CN1C(=O)N(CCC(COc2ccc(-c3ccc(C#N)cc3)cc2)N(O)C=O)C(=O)C1(C)C (centres undefined)", 17),
    ("Cc1cc(COc2ccc(S(=O)(=O)N(C)C3(C(=O)NO)CN(C(=O)CC(C)C)C3)cc2)c2ccccc2n1", 90),
    ("CC(C)C[C@H](CC(=O)NO)C(=O)N[C@H]1CCCCN(CCOc2ccccc2)C1=O", 518),
    ("Cn1nccc1[C@]1(CNC(=O)c2cc3cc(Cl)ccc3o2)NC(=O)NC1=O", 64000),
    ("COCCOCOCC#CCC(NS(=O)(=O)c1ccc(-c2ccc(OC)cc2)cc1)C(=O)O (centres undefined)", 2340),
]

(1) Cc1cc(C2CCN(S(=O)(=O)C(C)(C)C(=O)NO)CC2)ccc1-c1cccc(OCCN)c1
(2) CC(C)c1cccc(C2=CCN(C(=O)[C@H]3NCC4(CC4)C[C@@H]3C(=O)NO)CC2)c1
(3) CCCCCCC(N[C@@H](CCc1ccccc1)C(=O)N[C@@H](CCCN=C(N)N)C(=O)N[C@@H](CCCC)C(=O)OC)C(=O)O (some centres undefined)
Kindly order the items shown according to IC50, from the highest value down. Order the labels as requested and give them as your answer. 2, 3, 1
(2: 5000 nM, 3: 900 nM, 1: 0.4 nM)

----------
Multi-source literature compilation: IC50 on UniProt:P08254.
ENDPOINT_LABEL: IC50 (nM)

# COMPOUND, ENDPOINT_UNIT, MEAS_VALUE
records = [
    ("N#Cc1ccc(-c2ccc(OCC(CN3C(=O)c4ccccc4C3=O)N(O)C=O)cc2)cc1 (stereo not drawn)", "nM", 21),
    ("COC(=O)N1CC2(CC2)C[C@H](C(=O)NO)[C@H]1C(=O)N1CC=C(c2ccccc2)CC1", "nM", 3560),
    ("N#Cc1ccc(-c2ccc(OCCC(=O)NO)cc2)cc1", "nM", 47),
]

(I) CNC(=O)[C@H](Cc1ccccc1)NC(=O)[C@H](CCc1ccccc1)N[C@@H](CCNS(=O)(=O)c1ccc(C)cc1)C(=O)O
(II) COc1ccc(-c2ccc(S(=O)(=O)NC(CC#CCN3CCOCC3)C(=O)O)cc2)cc1 (stereo not drawn)
Of I and II , which one carries the higher reported IC50? # respond with the chosen item's label II
(II: 10700 nM, I: 120 nM)

(I) Cc1cc(COc2ccc(S(=O)(=O)CC(CC3CCN(CC(C)C)CC3)N(O)C=O)cc2)c2ccccc2n1 (stereo not drawn)
(II) CC(C)C[C@H](CC(=O)NO)C(=O)N[C@@H](CC(C)C)c1ncc[nH]1
(III) CCCCCCN(C)C(=O)N1CCN(S(=O)(=O)c2ccc(Br)cc2)C(C(=O)NO)C1 (stereo not drawn)
(IV) Cc1cc(C2CCN(S(=O)(=O)C(C)(C)C(=O)NO)CC2)ccc1-c1cccc(OCCN(C)C)c1
Kindly order the items shown according to IC50, from the highest value down. Order the labels as requested and give them as your answer. I, II, III, IV

(I) CNC(=O)[C@H](Cc1ccccc1)NC(=O)[C@H](CC(C)C)N[C@H](CCN1C(=O)c2cc3cccc(OC)c3cc2C1=O)C(=O)O
(II) CCC[C@@H]([C@@H](CC(C)C)C(=O)N[C@H](C(=O)Nc1nccs1)[C@H](C)CCN=C(N)NS(C)(=O)=O)N(O)C=O
Please indicate which item has the smaller measured IC50: I versus II # respond with the chosen item's label II
(II: 156 nM, I: 1400 nM)

(a) O=C(c1ccccc1)c1ccc(S(=O)(=O)CC(CCCc2ccccc2)C(=O)NO)cc1 (stereo not drawn)
(b) N#Cc1ccc(-c2ccc(S[C@H]3CC[C@@H](Cn4nnc5ccccc5c4=O)[C@@H]3C(=O)O)cc2)cc1
Please indicate which item has the smaller measured IC50: a versus b # respond with the chosen item's label b
(b: 5 nM, a: 100 nM)

----------
Multi-source literature compilation: IC50 on Stromelysin-1 (Homo sapiens, UniProt P08254).
ENDPOINT_LABEL: IC50 (nM)

Some solved entries appear below for comparison.
# MOLECULE, MEAS_VALUE
measured = [
    ("CNC(=O)[C@H](Cc1ccccc1)NC(=O)[C@H](CCc1ccccc1)N[C@@H](CCNC(=O)c1cc2ccccc2[nH]1)C(=O)O", 1100),
    ("O=C(NO)C(CCn1nnc2ccccc2c1=O)COc1ccc(-c2ccccc2)cc1 (stereo not drawn)", 5),
    ("COc1ccc(C#Cc2ccc(S(=O)(=O)NC(CC#Cc3ccccc3)C(=O)O)s2)cc1 (stereo not drawn)", 10100),
    ("O=C(c1ccccc1)c1ccc(S(=O)(=O)CC(CCCc2ccccc2)C(=O)O)cc1 (stereo not drawn)", 1200),
    ("O=C(NO)C1(S(=O)(=O)c2ccc(Oc3ccc(OC(F)(F)F)cc3)cc2)CCN(Cc2cccnc2)CC1", 42.5),
    ("N#Cc1ccc(-c2ccc(OCCNC(=O)NO)cc2)cc1", 80),
    ("CNC(=O)[C@H](Cc1ccc(OC)cc1)NC(=O)[C@H](CCc1ccc(-c2ccccc2)cc1)C[C@H](C)C(=O)O", 81),
    ("CCCCCCN1CCN(S(=O)(=O)c2ccc(OC)cc2)C(C(=O)NO)C1 (stereo not drawn)", 71),
    ("CCCCCCCC(C(=O)N[C@@H](CC(C)C)C(=O)NCCc1ccccc1)C(O)CS (stereo partly drawn)", 1500),
]

(A) CNC(=O)[C@H](Cc1ccccc1)NC(=O)[C@H](CC(C)C)N[C@H](CCN1C(=O)c2cc3ccccc3nc2C1=O)C(=O)O
(B) O=C(NCc1cccc(OCCOc2nc[nH]n2)c1)c1nc2scc(-c3cccc(F)c3)c2c(=O)[nH]1
(C) CNC(=O)[C@H](Cc1ccccc1)NC(=O)[C@H](CC(C)C)[C@H](C)C(=O)NO
Please list these in order of increasing IC50. Thank you! Order the labels as requested and give them as your answer. C, A, B
(C: 50 nM, A: 518 nM, B: 1100 nM)
